# target-under-test: Peroxisome proliferator-activated receptor delta (Homo sapiens, UniProt Q03181)
# Sequence (Q03181 whole entry): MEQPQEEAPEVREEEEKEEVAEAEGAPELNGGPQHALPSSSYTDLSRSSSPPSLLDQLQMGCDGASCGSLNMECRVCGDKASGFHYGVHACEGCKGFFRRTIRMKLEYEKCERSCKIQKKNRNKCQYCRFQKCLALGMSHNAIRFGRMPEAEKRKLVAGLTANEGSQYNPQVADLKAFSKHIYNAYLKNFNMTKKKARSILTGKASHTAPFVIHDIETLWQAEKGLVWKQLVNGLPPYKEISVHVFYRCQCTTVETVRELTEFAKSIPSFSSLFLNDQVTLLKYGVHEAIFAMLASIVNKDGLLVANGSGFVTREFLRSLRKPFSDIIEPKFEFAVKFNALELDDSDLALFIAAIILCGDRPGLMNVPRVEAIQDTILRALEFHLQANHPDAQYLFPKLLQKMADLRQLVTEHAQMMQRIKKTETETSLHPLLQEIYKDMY
# method-notes: Binding affinity to PPARdelta by scintillation proximity assay
result-type: IC50

> print(dat)
                              line.notation   result
1  COc1ccc2c(-n3c(=O)n(Cc4ccc(Cl)c(O[C@H](C)C(=O)O)c4)c4cc(C(F)(F)F)ccc43)noc2c1  > 50 µM
2  COc1ccc2c(-n3c(=O)n(Cc4ccc([C@@]5(C)OC(=O)NC5=O)cc4)c4cc(C(F)(F)F)ccc43)noc2c1  > 50 µM
3  COc1ccc2c(-n3c(=O)n(Cc4ccc(Cl)c(O[C@H](C)C(=O)O)c4)c4ccc(C(F)(F)F)cc43)noc2c1  > 50 µM
4  C[C@@H](Oc1cc(Cn2c(=O)n(-c3noc4ccc(Cl)cc34)c3ccc(C(F)(F)F)cc32)ccc1Cl)C(=O)O  > 50 µM
5  Cc1ccc2c(-n3c(=O)n(Cc4ccc(Cl)c(O[C@H](C)C(=O)O)c4)c4cc(C(F)(F)F)ccc43)noc2c1  > 50 µM
6  CC[C@@H](Oc1cccc(Cn2c(=O)n(-c3noc4cc(OC)ccc34)c3ccc(C(F)(F)F)cc32)c1)C(=O)O  > 50 µM
7  COc1ccc2c(-n3c(=O)n(Cc4cccc([C@@]5(C)OC(=O)NC5=O)c4)c4ccccc43)noc2c1  > 50 µM

* * *

# method-notes: Oral bioavailability in rat at 2 mg/kg by LC-MS/MS analysis
# Assay type: ADME, organism-based
# protocol-conditions: in vivo
result-type: bioavailability (%)

> print(dat)
                              line.notation      result.type  result.number
1  C[C@]1(c2cccc(Cn3c(=O)n(-c4noc5cc(Cl)ccc45)c4ccccc43)c2)OC(O)=NC1=O  bioavailability            117
2  COc1ccc2c(-n3c(=O)n(Cc4cc([C@@]5(C)OC(=O)NC5=O)ccc4Cl)c4ccccc43)noc2c1  bioavailability             49
3  COc1ccc2c(-n3c(=O)n(Cc4cccc([C@@]5(C)OC(=O)NC5=O)c4)c4ccccc43)noc2c1  bioavailability             87
4  COc1ccc2c(-n3c(=O)n(Cc4cc(O[C@H](C)C(=O)O)ccc4Cl)c4ccccc43)noc2c1  bioavailability             97
5  COc1ccc2c(-n3c(=O)n(Cc4ccc(Cl)c(O[C@H](C)C(=O)O)c4)c4ccccc43)noc2c1  bioavailability             48

* * *

Items are presented alongside their recorded EC50.
# target-under-test: Peroxisome proliferator-activated receptor gamma (Homo sapiens, UniProt P37231)
# Sequence (P37231 whole entry, the tested form may be a part): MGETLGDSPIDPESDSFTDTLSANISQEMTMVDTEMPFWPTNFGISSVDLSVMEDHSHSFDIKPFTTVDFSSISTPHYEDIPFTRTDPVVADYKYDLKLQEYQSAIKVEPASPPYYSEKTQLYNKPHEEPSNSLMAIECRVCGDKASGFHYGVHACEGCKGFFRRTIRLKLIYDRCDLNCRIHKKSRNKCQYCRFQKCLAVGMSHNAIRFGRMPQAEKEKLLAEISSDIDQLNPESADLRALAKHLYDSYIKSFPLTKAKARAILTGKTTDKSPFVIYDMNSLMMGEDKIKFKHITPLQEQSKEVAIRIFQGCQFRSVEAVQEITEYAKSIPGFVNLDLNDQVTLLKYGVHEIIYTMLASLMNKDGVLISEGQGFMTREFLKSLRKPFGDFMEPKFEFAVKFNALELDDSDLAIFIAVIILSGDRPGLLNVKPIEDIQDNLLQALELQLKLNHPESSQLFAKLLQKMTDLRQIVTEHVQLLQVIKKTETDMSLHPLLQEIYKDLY
# method-notes: Partial agonist activity at human PPARgamma LBD assessed as activation of Src-1 by HTRF assay
# Assay type: functional
result-type: EC50

> print(dat)
                              line.notation  result.type    result
1  COc1ccc2c(-n3c(=O)n(Cc4cc(O[C@H](C)C(=O)O)ccc4Cl)c4ccccc43)noc2c1         EC50   > 50 µM
2  Cc1c(C(=O)c2ccc(Cl)cc2)c2ccc(OC(F)(F)F)cc2n1Cc1cccc(O[C@@H](C(=O)O)C(C)C)c1         EC50  0.009 µM
3  CN(CCOc1ccc(C[C@H](OCC(F)(F)F)C(=O)O)cc1)c1nc2ccccc2o1         EC50  0.002 µM
4  COc1ccc2c(-n3c(=O)n(Cc4ccc(Cl)c(O[C@H](C)C(=O)O)c4)c4ccccc43)noc2c1         EC50   > 50 µM
5  COc1ccc2c(-n3c(=O)n(Cc4cc([C@@]5(C)OC(=O)NC5=O)ccc4Cl)c4ccccc43)noc2c1         EC50   > 50 µM
6  C[C@@H](Oc1cc(Cn2c(=O)n(-c3ccc(C(C)(C)C)cc3)c3ccc(C(F)(F)F)cc32)ccc1Cl)C(=O)O         EC50   > 50 µM
7  C[C@@H](Oc1cc(Cn2c(=O)n(-c3noc4cc(Cl)ccc34)c3ccc(C(F)(F)F)cc32)ccc1Cl)C(=O)O         EC50   > 50 µM
8  Cc1c(C(=O)c2ccc(Cl)cc2)c2ccc(OC(F)(F)F)cc2n1Cc1cccc(O[C@H](C)C(=O)O)c1         EC50   > 50 µM

Hey, just so you know, these numbers are from ChEMBL document CHEMBL1944523.
